Data credit: patent US20250382344A1

Molecular target: T1, human GIP receptor (human, UniProt P48546 22-466)
T1 sequence (looked up): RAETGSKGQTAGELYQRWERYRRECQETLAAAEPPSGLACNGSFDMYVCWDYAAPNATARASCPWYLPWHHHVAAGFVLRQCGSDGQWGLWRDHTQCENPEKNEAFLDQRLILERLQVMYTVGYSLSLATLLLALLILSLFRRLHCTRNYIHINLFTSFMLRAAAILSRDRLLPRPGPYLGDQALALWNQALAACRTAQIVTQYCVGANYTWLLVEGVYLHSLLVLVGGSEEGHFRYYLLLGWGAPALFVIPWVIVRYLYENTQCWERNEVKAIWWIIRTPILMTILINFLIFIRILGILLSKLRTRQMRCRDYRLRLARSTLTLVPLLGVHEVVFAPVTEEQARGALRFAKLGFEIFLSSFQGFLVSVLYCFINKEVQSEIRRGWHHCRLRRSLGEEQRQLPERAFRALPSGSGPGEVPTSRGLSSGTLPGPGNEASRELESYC
Experiment: cell-based or functional assay
*1 amine or outer side, *2 acyl side, *3 side chain or, on linkers, in order; H or OH if unused. Where no end group is shown, it is not given here. Side-chain parts run from the residue outwards. [ ]: non-standard residue; d: D form. The star is where a group is joined. C18 diacid = O=C(O)CCCCCCCCCCCCCCCCC(=O)*; γGlu = O=C(O)[C@H](CCC(=O)[*:2])N[*:1]; AEEA = NCCOCCOCC(=O)O; Aib = CC(C)(N)C(=O)O
The class of a record is decided solely by its measured EC50, CreLuc reporter, 0.5% hP; consult low value: < 0.3 nM; medium value: ≥ 0.3 nM and < 0.6 nM; high value: ≥ 0.6 nM

For orientation, consider the following solved cases.
| binder | qualitative.label |
| --- | --- |
| YXEGTFTSDYSIXLEKQAQXAFVRHLIAKXTRQRY (Aib at 2, 13, 20, 30; Lys29 epsilon-amino acylated with C18DA-gGlu-gGlu-gGlu-gGlu-gGlu-gGlu-eLys; C-terminal amide) [Compound 68] | low value |
| YXEGTFTSDYSIXLEKQAQXAFVRHLLNKXTRQRY (Aib at 2, 13, 20, 30; Lys29 epsilon-amino acylated with C20DA-gGlu-gGlu-gGlu-gGlu-gGlu-gGlu-eLys; C-terminal amide) [Compound 80] | high value |
| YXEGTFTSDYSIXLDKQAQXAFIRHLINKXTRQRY (Aib at 2, 13, 20, 30; Lys29 epsilon-amino acylated with C20DA-gGlu-gGlu-gGlu-gGlu-gGlu-gGlu-eLys; C-terminal amide) [Compound 81] | medium value |
| YXEGTFTSDYSIXLENQAQXAFVRHLINKXTRQRY (Aib at 2, 13, 20, 30; Lys29 epsilon-amino acylated with C18DA-gGlu-gGlu-gGlu-gGlu-gGlu-gGlu-eLys; C-terminal amide) [Compound 6] | high value |

Now examine the next entry.
stdin: Any idea which band Y[Aib]EGTFTSDYSI[Aib]LEKQAQ[Aib]EFVRHLINK([AEEA-AEEA-γGlu-γGlu-γGlu-γGlu-C18 diacid])[Aib]TRQRY-NH2 [Compound 73] is in?
stdout: medium value
